target: 5-HT transporter (Rattus norvegicus); construct: from tissue; host or cells: rat frontal cortex membranes (male Sprague-Dawley rats); test: Rat Brain 3H-Paroxetine Binding Assay (RB 5HT Transporter); conditions: rat frontal cortical membranes, 3H-paroxetine; read-out: RB 5HT Transporter Ki
quantity: Ki (nM)

                              record_smiles  quantity  obs_value
0  COc1cc2ncn(CCN3CCC(c4c[nH]c5ccccc45)CC3)c(=O)c2cc1OC        Ki         36

(I) O=c1c2ccccc2nnn1CCCN1CCC(c2c[nH]c3ccccc23)CC1
(II) COc1cc2ncn(CCCCN3CCC(c4c[nH]c5ccccc45)CC3)c(=O)c2cc1OC
(III) Cn1cc(C2CCN(CCn3cnc4ccccc4c3=O)CC2)c2ccccc21
Query: Hey, quick one: sort these by Ki, low to high? The response must list the labels following the requested ordering.
Response: II, I, III

----------
Target: human 5-HT1A receptors (Homo sapiens, UniProt P08908)
Construct: expressed in transfected cells; host or cells: CHO cells
Sequence (P08908 1-422): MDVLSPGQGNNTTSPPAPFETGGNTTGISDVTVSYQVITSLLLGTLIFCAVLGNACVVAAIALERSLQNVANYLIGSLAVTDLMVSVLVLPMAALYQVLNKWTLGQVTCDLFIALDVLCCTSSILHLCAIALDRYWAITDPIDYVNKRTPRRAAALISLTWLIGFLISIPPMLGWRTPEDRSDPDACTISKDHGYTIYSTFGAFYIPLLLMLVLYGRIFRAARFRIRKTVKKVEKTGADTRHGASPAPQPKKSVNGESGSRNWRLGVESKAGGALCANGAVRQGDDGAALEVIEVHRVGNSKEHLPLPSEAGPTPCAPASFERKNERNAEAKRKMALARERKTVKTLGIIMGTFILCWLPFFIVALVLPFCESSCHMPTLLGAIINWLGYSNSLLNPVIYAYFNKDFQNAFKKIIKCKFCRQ
Experiment: [3H] 8-OH-DPAT displacement from the 5-HT1A serotonin receptor (CHO cells)
Format: binding
Conditions: [3H] 8-OH-DPAT displacement, CHO cells with human 5-HT1A receptors; read-out: 5-HT1A Ki
quantity: Ki (nM)

Look over these answered cases.
                                   molecule                               measured_on  quantity  endpoint_unit  obs_value
0  O=c1c2ccccc2nnn1CCCN1CC=C(c2c[nH]c3ccccc23)CC1 [Example 19]  human 5-HT1A receptors (Homo sapiens, UniProt P08908)        Ki             nM        315
1  COc1cc2ncn(CCCN3CC=C(c4c[nH]c5ccccc45)CC3)c(=O)c2cc1OC [Example 6]  human 5-HT1A receptors (Homo sapiens, UniProt P08908)        Ki             nM        286
2  Cn1cc(C2CCN(CCn3nnc4ccccc4c3=O)CC2)c2ccccc21 [Example 18]  human 5-HT1A receptors (Homo sapiens, UniProt P08908)        Ki             nM       80.9

(I) COc1cc2ncn(CCCN3CCC(c4c[nH]c5ccccc45)CC3)c(=O)c2cc1OC [Example 7]
(II) COc1cc2ncn(CCN3CCC(c4c[nH]c5ccccc45)CC3)c(=O)c2cc1OC [Example 2]
Query: Lower value of Ki belongs to which: I or II ? Choose, then provide that item's label.
Response: II
(II: 72.1 nM, I: 201 nM)

----------
Measured Ki values are reported for all entries that follow.
Molecular target: 5-HT transporter (Rattus norvegicus, UniProt P31652)
Construct: from tissue; host or cells: rat frontal cortex membranes (male Sprague-Dawley rats)
Sequence (P31652 whole entry): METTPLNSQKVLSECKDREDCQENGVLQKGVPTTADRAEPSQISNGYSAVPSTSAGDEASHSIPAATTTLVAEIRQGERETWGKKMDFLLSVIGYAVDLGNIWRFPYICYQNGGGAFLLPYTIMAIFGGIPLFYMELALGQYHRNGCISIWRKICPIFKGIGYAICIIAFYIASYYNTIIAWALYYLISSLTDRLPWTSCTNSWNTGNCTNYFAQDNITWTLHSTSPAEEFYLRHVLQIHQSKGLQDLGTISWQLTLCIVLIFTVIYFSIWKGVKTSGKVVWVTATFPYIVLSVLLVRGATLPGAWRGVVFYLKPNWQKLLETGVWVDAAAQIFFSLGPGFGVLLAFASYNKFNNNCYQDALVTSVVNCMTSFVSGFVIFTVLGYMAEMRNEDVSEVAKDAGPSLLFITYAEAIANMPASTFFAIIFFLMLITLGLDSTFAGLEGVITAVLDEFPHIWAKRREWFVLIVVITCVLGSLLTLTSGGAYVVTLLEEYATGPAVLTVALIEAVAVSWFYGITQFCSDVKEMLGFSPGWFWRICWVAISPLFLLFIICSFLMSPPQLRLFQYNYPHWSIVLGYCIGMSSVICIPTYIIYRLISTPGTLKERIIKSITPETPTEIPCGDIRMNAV
Assay: Rat Brain 3H-Paroxetine Binding Assay (RB 5HT Transporter)
Procedure: Rat Brain ^3H-Paroxetine Binding Assay (RB 5HT Transporter): This assay was used to determine a compound's affinity of the 5-HT transporter. A protocol similar to that used by Cheetham et. al. (Neuropharmacol. 1993, 32, 737) was used. Briefly, frontal cortical membranes prepared from male S.D. rats were incubated with ^3H-parxetine (0.1 nM) for 60 min. at 25° C. […] Bound radioactivity was quantitated using a Wallac 1205 Beta Plate® counter. […]
Please give a number only; it is taken to be in nM.

In [3]: df
Out[3]:
                              record_smiles  endpoint_unit  obs_value
0  COc1cc2ncn(CCCCN3CC=C(c4c[nH]c5ccccc45)CC3)c(=O)c2cc1OC             nM       1.25
1  O=c1c2cc(Cl)ccc2ncn1CCCN1CC=C(c2c[nH]c3ccccc23)CC1             nM       1.14
2  O=c1c2cc(F)ccc2ncn1CCN1CC=C(c2c[nH]c3ccccc23)CC1             nM         19

Proceed to the following item.
Query: Fill blank: measured Ki of the compound Cn1cc(C2=CCN(CCCn3nnc4ccccc4c3=O)CC2)c2ccccc21 is ____.
Response: 0.56

----------
quantity: melting point (°C)

Look over these answered cases.
>>> print(df.to_string())
                                   molecule  obs_value
0  COc1cc2ncn(CCN3CC=C(c4c[nH]c5ccccc45)CC3)c(=O)c2cc1OC [Example 1]        219
1  O=c1c2cc(Cl)cc(Br)c2ncn1CCCN1CC=C(c2c[nH]c3ccccc23)CC1 [Example 9]        192

(A) O=c1n(CCCN2CCC(c3c[nH]c4ccccc34)CC2)nc2ccccn12 [Example 23]
(B) O=c1n(CCN2CC=C(c3c[nH]c4ccccc34)CC2)nc2ccccn12
Query: Lower value of melting point belongs to which: A or B ? Choose, then provide that item's label.
Response: A
(A: 111.7 °C, B: 170.4 °C)

----------
quantity: melting point (°C)

                              record_smiles  obs_value
0  O=c1c2cc(F)ccc2ncn1CCN1CC=C(c2c[nH]c3ccccc23)CC1        138

(1) COc1cc2ncn(CCN3CCC(c4c[nH]c5ccccc45)CC3)c(=O)c2cc1OC
(2) O=c1n(CCN2CCC(c3c[nH]c4ccccc34)CC2)nc2ccccn12
Query: Of 1 and 2 , which one carries the higher reported melting point? Choose, then provide that item's label.
Response: 1
(1: 230 °C, 2: 142 °C)

(I) O=c1n(CCCN2CC=C(c3c[nH]c4ccccc34)CC2)nc2ccccn12
(II) Cn1cc(C2CCN(CCn3cnc4ccccc4c3=O)CC2)c2ccccc21
Query: Lower value of melting point belongs to which: I or II ? Choose, then provide that item's label.
Response: II

----------
target: human 5-HT1A receptors (Homo sapiens, UniProt P08908); construct: expressed in transfected cells; host or cells: CHO cells; experiment: [3H] 8-OH-DPAT displacement from the 5-HT1A serotonin receptor (CHO cells); type: binding
quantity: Ki (nM)
Please give a number only; it is taken to be in nM.

Query: Fill blank: measured Ki of the compound COc1cc2ncn(CCN3CC=C(c4c[nH]c5ccccc45)CC3)c(=O)c2cc1OC is ____.
Response: 83.8

----------
Biological target: 5-HT transporter (Rattus norvegicus)
Construct: from tissue; host or cells: rat frontal cortex membranes (male Sprague-Dawley rats)
Assay: Rat Brain 3H-Paroxetine Binding Assay (RB 5HT Transporter)
Procedure: Rat Brain ^3H-Paroxetine Binding Assay (RB 5HT Transporter): This assay was used to determine a compound's affinity of the 5-HT transporter. A protocol similar to that used by Cheetham et. al. (Neuropharmacol. 1993, 32, 737) was used. Briefly, frontal cortical membranes prepared from male S.D. rats were incubated with ^3H-parxetine (0.1 nM) for 60 min. at 25° C. […] Bound radioactivity was quantitated using a Wallac 1205 Beta Plate® counter. […]
Measured pKi values are reported for all entries that follow.
Please express pKi as -log10 of the molar concentration.

>>> df
                              record_smiles                           measured_on  obs_value
0  COc1cc2ncn(CCN3CC=C(c4c[nH]c5ccccc45)CC3)c(=O)c2cc1OC  5-HT transporter (Rattus norvegicus)       8.54
1  O=c1c2ccccc2nnn1CCCN1CC=C(c2c[nH]c3ccccc23)CC1  5-HT transporter (Rattus norvegicus)       9.82

Query: Fill blank: measured pKi of the molecule O=c1c2cc(Cl)cc(Br)c2ncn1CCCN1CC=C(c2c[nH]c3ccccc23)CC1 is ____.
Response: 9.51

Query: Can you handle COc1cc2ncn(CCCN3CC=C(c4c[nH]c5ccccc45)CC3)c(=O)c2cc1OC next?
Response: 9.10

Query: Can you handle COc1cc2ncn(CCCN3CC=C(c4c[nH]c5ccc(F)cc45)CC3)c(=O)c2cc1OC next?
Response: 8.72
